System: UWB1 cells
Test: cells
Conditions: read-out: IC50 (μM) UWB1 cells, UWB1 cell viability
Measurement Label: IC50

compound="COC(=O)C[C@H]1[C@@H]2CC3=C(C)[C@H](c4ccc(C(C)(C)C)cc4)C[C@H]3O[C@@H]2[C@@H]2OC(=O)[C@]3(C)C=CC(=O)[C@@]1(C)[C@@H]23 [S-143]" measurement_label=IC50 result="0.238 µM"
compound="COC(=O)C[C@H]1[C@]2(C)C3=C(C)[C@H](c4ccoc4-c4ccc(C(=O)OC)cc4)C[C@H]3O[C@@H]2[C@@H]2OC(=O)[C@]3(C)C=CC(=O)[C@@]1(C)[C@@H]23 [S-59]" measurement_label=IC50 result="0.203 µM"
compound="C=C1[C@H](O[C@H]2CCC(C)=C2I)[C@@H]2OC(=O)[C@]3(C)C=CC(=O)[C@@](C)([C@@H]23)[C@H]1CC(=O)OC [S-84]" measurement_label=IC50 result="0.183 µM"
compound="COC(=O)C[C@H]1[C@]2(C)C3=C(C)[C@H](c4ccc(-c5cc(C(C)(C)C)cc(C(C)(C)C)c5)cc4)C[C@H]3O[C@@H]2[C@@H]2OC(=O)[C@]3(C)C=CC(=O)[C@@]1(C)[C@@H]23 [S-132]" measurement_label=IC50 result="0.142 µM"
compound="COC(=O)C[C@H]1[C@@H]2CC3=C(C)[C@H](c4ccoc4)C[C@@H]3O[C@@H]2[C@@H]2OC(=O)[C@]3(C)C=CC(=O)[C@@]1(C)[C@@H]23 [S-57]" measurement_label=IC50 result="0.591 µM"
compound="COC(=O)C[C@H]1[C@@H]2CC3=C(C)[C@@H](c4ccc(OS(=O)(=O)c5c(C)cc(C)cc5C)cc4)C[C@@H]3O[C@@H]2[C@@H]2OC(=O)[C@]3(C)C=CC(=O)[C@@]1(C)[C@@H]23 [S-139]" measurement_label=IC50 result="0.14 µM"
compound="COC(=O)C[C@H]1[C@@H]2CC3=C(C)[C@H](c4ccc(-c5cc(C(C)(C)C)cc(C(C)(C)C)c5)cc4)C[C@@H]3O[C@@H]2[C@@H]2OC(=O)[C@]3(C)C=CC(=O)[C@@]1(C)[C@@H]23 [S-134]" measurement_label=IC50 result="0.091 µM"
compound="COC(=O)C[C@H]1[C@@H]2CC3=C(C)[C@@H](c4ccc(C(=O)NC(C)(C)C)cc4)C[C@@H]3O[C@@H]2[C@@H]2OC(=O)[C@]3(C)C=CC(=O)[C@@]1(C)[C@@H]23 [S-153]" measurement_label=IC50 result="0.245 µM"
compound="COC(=O)C[C@H]1[C@]2(C)C3=C(C)[C@H](c4ccoc4)C[C@H]3O[C@@H]2[C@H](OC(C)=O)[C@@H]2[C@]1(C)C(=O)C=C[C@@]2(C)C(=O)OC [S-64, nimbin]" measurement_label=IC50 result="> 10 µM"

As a next step, examine the compound that follows.
Give IC50 (UWB1 cells) of the following compound: COC(=O)C[C@H]1[C@@H]2CC3=C(C)[C@@H](c4ccccc4)C[C@@H]3O[C@@H]2[C@@H]2OC(=O)[C@]3(C)C=CC(=O)[C@@]1(C)[C@@H]23 [S-103]
0.16 µM

* * *

Test system: UWB1 cells
Experiment: cells
Details: read-out: IC50 (μM) UWB1 cells, UWB1 cell viability
Measurement Label: IC50 (µM)
Value expressed in µM; do not type the unit.

compound=C=C1[C@H](O)[C@@H]2OC(=O)[C@]3(C)C=CC(=O)[C@@](C)([C@@H]23)[C@H]1CC(=O)OC(C)(C)C readout_number=3.65
compound=C=C1[C@H](O[C@H]2CCC(C(C)C)=C2I)[C@@H]2OC(=O)[C@]3(C)C=CC(=O)[C@@](C)([C@@H]23)[C@H]1CC(=O)OC readout_number=0.255
compound=CC1=C2[C@@H](C[C@H]1c1ccoc1)O[C@@H]1[C@@H]3OC(=O)[C@]4(C)C=CC(=O)[C@](C)([C@@H](CC(=O)OC(C)(C)C)[C@]21C)[C@@H]34 readout_number=0.453

Quick one: IC50 of C#CCOC(=O)c1ccc(-c2occc2[C@@H]2C[C@H]3O[C@@H]4[C@@H]5OC(=O)[C@]6(C)C=CC(=O)[C@](C)([C@@H](CC(=O)OC)[C@]4(C)C3=C2C)[C@@H]56)cc1 [S-112a] ?
0.198

* * *

Test system: UWB1 cells
Experiment: cells
Settings: read-out: IC50 (μM) UWB1 cells, UWB1 cell viability
Listing: IC50 of selected compounds
Value expressed in µM; do not type the unit.

mol_smiles=COC(=O)C[C@H]1[C@]2(C)C3=C(C)[C@H](c4ccc(OC)cc4)C[C@H]3O[C@@H]2[C@@H]2OC(=O)[C@]3(C)C=CC(=O)[C@@]1(C)[C@@H]23 units_label=µM readout_number=0.27

Give IC50 (UWB1 cells) of the following compound: "COC(=O)C[C@H]1[C@@H]2CC3=C(C)[C@H](c4ccc(C(C)(C)C)cc4)C[C@@H]3O[C@@H]2[C@@H]2OC(=O)[C@]3(C)C=CC(=O)[C@@]1(C)[C@@H]23"
0.145

* * *

Test system: UWB1 cells
Conditions: read-out: IC50 (μM) UWB1 cells, UWB1 cell viability
Measurement Label: IC50
A complete answer gives the number followed by the unit.

Quick one: IC50 of COC(=O)C[C@H]1[C@]2(C)C3=C(C)[C@H](C4=CC(=O)OC4OC(C)=O)C[C@H]3O[C@@H]2[C@@H]2OC(=O)[C@]3(C)C=CC(=O)[C@@]1(C)[C@@H]23 (stereo partly shown) ?
0.954 µM

* * *

Listing: IC50 of selected molecules
Tested on: UWB1 cells
Assay: cells
Details: read-out: IC50 (μM) UWB1 cells, UWB1 cell viability
Value expressed in µM; do not type the unit.

Reference set (3 entries):
mol_smiles=COC(=O)C[C@H]1[C@@H]2CC3=C(C)[C@H](c4ccc(OC(=O)C(C)(C)C)cc4)C[C@@H]3O[C@@H]2[C@@H]2OC(=O)[C@]3(C)C=CC(=O)[C@@]1(C)[C@@H]23 measurement_label=IC50 units_label=µM readout_number=0.141
mol_smiles=COC(=O)C[C@H]1[C@@H]2CC3=C(C)[C@H](c4ccccc4)C[C@@H]3O[C@@H]2[C@@H]2OC(=O)[C@]3(C)C=CC(=O)[C@@]1(C)[C@@H]23 measurement_label=IC50 units_label=µM readout_number=0.17
mol_smiles=CC1=C2C[C@@H]3[C@H](O[C@@H]2C[C@H]1c1ccoc1)[C@@H]1OC(=O)[C@]2(C)C=CC(=O)[C@@](C)([C@@H]12)[C@H]3CC(=O)OC(C)(C)C measurement_label=IC50 units_label=µM readout_number=0.306

Quick one: IC50 of "COC(=O)C[C@H]1[C@]2(C)C3=C(C)[C@H](c4ccoc4-c4ccoc4)C[C@H]3O[C@@H]2[C@@H]2OC(=O)[C@]3(C)C=CC(=O)[C@@]1(C)[C@@H]23" ?
0.296

* * *

System: UWB1 cells
Assay: cells
Conditions: read-out: IC50 (μM) UWB1 cells, UWB1 cell viability
Measurement Label: IC50 (µM)
Value expressed in µM; do not type the unit.

compound="COC(=O)C[C@H]1[C@]2(C)C3=C(C)[C@H](C4=CCOC4=O)C[C@H]3O[C@@H]2[C@@H]2OC(=O)[C@]3(C)C=CC(=O)[C@@]1(C)[C@@H]23 [S-131]" units_label=µM readout_number=1.18
compound="COC(=O)C[C@H]1[C@]2(C)C3=C(C)[C@H](c4ccoc4-c4ccc(OC)nc4)C[C@H]3O[C@@H]2[C@@H]2OC(=O)[C@]3(C)C=CC(=O)[C@@]1(C)[C@@H]23 [S-43]" units_label=µM readout_number=0.208
compound="COC(=O)C[C@H]1[C@]2(C)C3=C(C)[C@H](c4ccoc4-c4ccc(C(=O)NC(C)(C)C)cc4)C[C@H]3O[C@@H]2[C@@H]2OC(=O)[C@]3(C)C=CC(=O)[C@@]1(C)[C@@H]23 [S-52]" units_label=µM readout_number=0.199
compound="COC(=O)C[C@H]1[C@]2(C)C3=C(C)[C@H](c4ccoc4-c4ccc(O[Si](C)(C)C(C)(C)C)cc4)C[C@H]3O[C@@H]2[C@@H]2OC(=O)[C@]3(C)C=CC(=O)[C@@]1(C)[C@@H]23 [S-46]" units_label=µM readout_number=0.089
compound="COC(=O)C[C@H]1[C@]2(C)C3=C(C)[C@H](c4ccoc4-c4ccc([N+](=O)[O-])cc4)C[C@H]3O[C@@H]2[C@@H]2OC(=O)[C@]3(C)C=CC(=O)[C@@]1(C)[C@@H]23 [S-49]" units_label=µM readout_number=0.194
compound="COC(=O)C[C@H]1[C@]2(C)C3=C(C)[C@H](c4ccoc4-c4ccc(C=O)cc4)C[C@H]3O[C@@H]2[C@@H]2OC(=O)[C@]3(C)C=CC(=O)[C@@]1(C)[C@@H]23 [S-45]" units_label=µM readout_number=0.251

As a next step, examine the compound that follows.
Quick one: IC50 of COC(=O)C[C@H]1[C@@H]2CC3=C(C)[C@@H](c4ccc(-c5cc(C(C)(C)C)cc(C(C)(C)C)c5)cc4)C[C@@H]3O[C@@H]2[C@@H]2OC(=O)[C@]3(C)C=CC(=O)[C@@]1(C)[C@@H]23 [S-137] ?
0.169
